Provenance of the data: patent US20040147432A1

Quick reference: IC50 of the listed items.
# targetUnderTest: T1, human melanin concentrating hormone type 2 receptor (MCH-2R) (human, UniProt Q969V1 1-340)
# T1 construct: also called MCH-R2
# T1 sequence (Q969V1 whole entry, form in doubt): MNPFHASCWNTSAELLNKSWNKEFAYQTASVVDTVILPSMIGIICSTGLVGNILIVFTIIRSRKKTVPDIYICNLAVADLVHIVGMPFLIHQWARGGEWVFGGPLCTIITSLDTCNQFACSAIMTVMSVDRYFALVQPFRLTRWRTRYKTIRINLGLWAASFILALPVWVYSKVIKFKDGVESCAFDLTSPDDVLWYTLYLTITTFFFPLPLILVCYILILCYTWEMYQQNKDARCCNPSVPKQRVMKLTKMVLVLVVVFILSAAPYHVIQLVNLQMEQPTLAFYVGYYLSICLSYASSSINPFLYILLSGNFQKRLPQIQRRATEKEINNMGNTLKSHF
# methodDescription: SPA competition with [125I]-human MCH (Phe13, Tyr19) on receptor membranes
# Description: For the SPA-based assay, WGA-PVT beads (NEN Life Sciences Products) were resuspended in Dulbecco's PBS with calcium and magnesium (500 mg beads in 4 ml PBS). […] Coated beads were kept on ice until use. […] Quantitation was performed by scintillation counting (TopCount device).
Bridges are numbered along the chain shown (N, C = ends). [ ]: non-standard residue; d: D form. Arg(NO2) = N=C(NCCC[C@H](N)C(=O)O)N[N+](=O)[O-]
Numeric answer plus unit only.

binder	IC50
Ac-RCML[dA][Arg(NO2)]VYRPC-NH2 (disulfide 2-11 (inferred), also called D-Ala^10, Arg(NO2)^11) [SEQ. ID. NO. 37]	490 nM

**Q:** Give its IC50 value. Item: Ac-RCMLGAVYRPC-NH2 (disulfide 2-11; SMILES CSCC[C@@H]1NC(=O)[C@@H](NC(=O)[C@H](CCCNC(=N)N)NC(C)=O)CSSC[C@@H](C(N)=O)NC(=O)[C@@H]2CCCN2C(=O)[C@H](CCCNC(=N)N)NC(=O)[C@H](Cc2ccc(O)cc2)NC(=O)[C@H](C(C)C)NC(=O)[C@H](C)NC(=O)CNC(=O)[C@H](CC(C)C)NC1=O, also called Ala^11) [SEQ. ID. NO. 23]
**A:** 9.7 nM
